Molecular target: GSTO1 (Homo sapiens, UniProt P78417)
Sequence (P78417 1-241): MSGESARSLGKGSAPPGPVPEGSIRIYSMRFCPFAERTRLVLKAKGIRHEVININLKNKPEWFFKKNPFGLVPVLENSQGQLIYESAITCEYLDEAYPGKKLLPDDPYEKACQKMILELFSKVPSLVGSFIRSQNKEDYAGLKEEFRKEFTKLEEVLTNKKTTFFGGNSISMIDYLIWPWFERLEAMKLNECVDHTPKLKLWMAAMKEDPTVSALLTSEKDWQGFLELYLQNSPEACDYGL
Experiment: GSTO1 substrate assay (reduction of 4-NPG)
Conditions: 10 µM
metric_name: GSTO substrate assay % Inhibition at 10 µM (%)

- compound: "N#CCCN(C(=O)CCl)c1cccc(C(F)(F)F)c1"
  quantitative_readout: 78.6
- compound: "COc1ccc(C2=NN(C(=O)CCl)C(c3cccc(OC)c3OC)C2)cc1 (stereo not drawn)"
  quantitative_readout: 40.0
- compound: "O=C(CCl)Nc1cc2c(cc1Cl)OCCCO2"
  quantitative_readout: 77.7
